- TEST_TARGET: Human androgen receptors (Homo sapiens, UniProt P10275, T878A)
- Construct: Human androgen receptors obtained from human LNCaP cells were used; host or cells: human LNCaP cells
- Sequence (P10275 whole entry T878A): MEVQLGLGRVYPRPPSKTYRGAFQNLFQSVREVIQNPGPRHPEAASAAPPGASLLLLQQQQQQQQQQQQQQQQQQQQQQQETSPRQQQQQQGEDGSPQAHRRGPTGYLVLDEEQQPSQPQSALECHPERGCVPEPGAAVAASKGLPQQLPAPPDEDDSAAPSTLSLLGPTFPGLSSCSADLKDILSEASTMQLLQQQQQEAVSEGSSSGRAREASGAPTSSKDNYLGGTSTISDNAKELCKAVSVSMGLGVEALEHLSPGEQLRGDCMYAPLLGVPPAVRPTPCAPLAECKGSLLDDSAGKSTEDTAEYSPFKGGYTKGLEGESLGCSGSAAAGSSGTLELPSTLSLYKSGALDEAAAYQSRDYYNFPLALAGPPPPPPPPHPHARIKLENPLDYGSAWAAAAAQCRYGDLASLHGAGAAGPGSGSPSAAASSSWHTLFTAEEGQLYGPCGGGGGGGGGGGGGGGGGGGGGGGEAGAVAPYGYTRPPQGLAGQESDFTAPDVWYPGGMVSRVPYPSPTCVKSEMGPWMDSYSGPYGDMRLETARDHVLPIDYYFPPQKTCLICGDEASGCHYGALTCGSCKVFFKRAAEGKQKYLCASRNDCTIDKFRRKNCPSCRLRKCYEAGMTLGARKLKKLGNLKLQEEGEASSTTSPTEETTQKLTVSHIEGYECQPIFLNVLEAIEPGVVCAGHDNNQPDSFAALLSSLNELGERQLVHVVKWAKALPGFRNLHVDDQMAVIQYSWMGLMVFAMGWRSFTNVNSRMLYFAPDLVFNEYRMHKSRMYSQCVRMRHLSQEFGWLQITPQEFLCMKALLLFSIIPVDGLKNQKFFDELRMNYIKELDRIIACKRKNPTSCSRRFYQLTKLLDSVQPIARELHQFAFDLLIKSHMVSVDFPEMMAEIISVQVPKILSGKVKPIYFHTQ
- ASSAY: Biochemical AR LBD antagonism (Eurofins AR radioligand binding assay)
- RUN_PARAMETERS: Table 3; read-out: Biochemical AR LBD Antagonism: Avg IC50
pIC50: −log10 of the molar value.
READOUT_NAME: pIC50

[[record]]
molecule = "C[C@@H](Nc1ccc2nnc(C(F)(F)F)n2n1)c1ccc(F)cc1"
value_measured = "< 6.30"


In: Requested read-out: pIC50. Entry: CC(Nc1ccc2nnc(C(F)(F)F)n2n1)c1ccc(F)cc1 (racemic) [Comparative Compound 1, reference compound]
Out: < 6.30

In: C[C@H](Nc1ccc2nnc(C(F)(F)F)n2n1)c1ccc(F)cc1 [Comparative Compound 2, reference compound] , same question.
Out: < 6.30

###

- TEST_TARGET: human AR (Homo sapiens)
- Construct: Reporter Cells used in these assays expressed a native receptor (AR)
- Sequence (P10275 whole entry): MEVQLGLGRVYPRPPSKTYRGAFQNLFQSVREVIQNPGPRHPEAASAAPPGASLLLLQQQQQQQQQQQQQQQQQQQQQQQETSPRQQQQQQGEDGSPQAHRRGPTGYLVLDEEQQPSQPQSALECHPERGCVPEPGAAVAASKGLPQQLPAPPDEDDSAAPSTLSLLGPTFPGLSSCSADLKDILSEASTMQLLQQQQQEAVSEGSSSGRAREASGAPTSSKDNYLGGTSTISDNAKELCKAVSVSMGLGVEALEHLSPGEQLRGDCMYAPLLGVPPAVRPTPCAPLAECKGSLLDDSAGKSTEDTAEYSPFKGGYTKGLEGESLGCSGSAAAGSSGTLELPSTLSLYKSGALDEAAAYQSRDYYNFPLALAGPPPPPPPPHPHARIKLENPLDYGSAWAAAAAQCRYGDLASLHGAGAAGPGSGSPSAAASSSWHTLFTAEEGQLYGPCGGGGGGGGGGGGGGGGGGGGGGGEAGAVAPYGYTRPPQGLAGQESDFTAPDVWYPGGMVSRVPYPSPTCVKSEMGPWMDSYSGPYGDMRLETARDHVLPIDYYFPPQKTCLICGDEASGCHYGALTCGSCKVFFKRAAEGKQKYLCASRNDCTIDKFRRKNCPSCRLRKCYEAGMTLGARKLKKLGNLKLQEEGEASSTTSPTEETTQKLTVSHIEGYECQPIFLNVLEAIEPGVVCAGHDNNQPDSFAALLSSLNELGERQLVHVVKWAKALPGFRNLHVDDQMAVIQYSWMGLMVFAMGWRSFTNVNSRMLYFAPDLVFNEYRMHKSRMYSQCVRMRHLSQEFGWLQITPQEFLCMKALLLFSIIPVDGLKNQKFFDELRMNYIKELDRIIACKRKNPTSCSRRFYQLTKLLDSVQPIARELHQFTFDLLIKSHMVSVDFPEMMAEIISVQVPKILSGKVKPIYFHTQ
- ASSAY: Indigo Biosciences AR reporter cell assay (AR inhibition, antagonist mode)
- Assay type: cell-based
- RUN_PARAMETERS: Table 2; luciferase reporter cells, 24 hr, EC80 of agonist 5α-dihydro-11-keto testosterone; read-out: AR Inhibition Indigo Cell Based: Avg IC50
// reported IC50 per item

[[record]]
compound = "CC[C@@H](Nc1ccc2nnc(C(F)(F)F)n2n1)c1ccc(F)cc1 [Compound 3]"
test_target = "human AR (Homo sapiens)"
value_measured = "< 50 nM"


In: Requested read-out: IC50. Entry: Cc1nnc2ccc(N[C@H](C)c3ccc(F)cc3)nn12 [Compound 10]
Out: 51 to 500 nM

In: C[C@@H](Nc1ccc2nnc(C(F)F)n2n1)c1ccc(F)cc1 [Compound 12] , same question.
Out: 51 to 500 nM

In: C[C@@H](Nc1ccc2nnc(C3CC3)n2n1)c1ccc(F)cc1 [Compound 11] , same question.
Out: > 501 nM

In: C[C@@H](Nc1ccc2nnc(C(F)(F)F)n2n1)c1ccc(C(F)(F)F)cc1 [Compound 4] , same question.
Out: 51 to 500 nM

In: C[C@@H](Nc1ccc2nnc(C(F)(F)F)n2n1)c1ccc(F)cc1 [Compound 1] , same question.
Out: < 50 nM

In: C[C@@H](Nc1ccc2nnc(C(F)(F)F)n2n1)c1cc(Cl)cc(Cl)c1 [Compound 8] , same question.
Out: 51 to 500 nM

In: C[C@@H](Nc1ccc2nnc(C(F)(F)F)n2n1)c1ccc(C#N)cc1 [Compound 9] , same question.
Out: > 501 nM

In: COc1cc([C@@H](C)Nc2ccc3nnc(C(F)(F)F)n3n2)ccc1F [Compound 6] , same question.
Out: 51 to 500 nM

In: C[C@@H](Nc1ccc2nnc(C(F)(F)F)n2n1)c1cc(F)cc(F)c1 [Compound 2] , same question.
Out: < 50 nM

In: COc1cc(Cl)cc([C@@H](C)Nc2ccc3nnc(C(F)(F)F)n3n2)c1 [Compound 7] , same question.
Out: 51 to 500 nM

In: C[C@H](c1ccc(F)cc1)N(C)c1ccc2nnc(C(F)(F)F)n2n1 [Compound 5] , same question.
Out: 51 to 500 nM

###

- ASSAY: Mouse liver microsome stability
- Assay type: in vitro ADME
- RUN_PARAMETERS: Table 6, mouse liver microsomes, 1 μM
READOUT_NAME: Mouse LM: Rem @ 60 min

The following molecules have reported results that may help.
[[record]]
molecule = "C[C@@H](Nc1ccc2nnc(C(F)(F)F)n2n1)c1cc(Cl)cc(Cl)c1 [Compound 8]"
value_measured = "+++ (>60.1: “+++”)"

[[record]]
molecule = "C[C@@H](Nc1ccc2nnc(C(F)(F)F)n2n1)c1cc(F)cc(F)c1 [Compound 2]"
value_measured = "+++ (>60.1: “+++”)"

[[record]]
molecule = "COc1cc([C@@H](C)Nc2ccc3nnc(C(F)(F)F)n3n2)ccc1F [Compound 6]"
value_measured = "+ (0-30: “+”)"

[[record]]
molecule = "COc1cc(Cl)cc([C@@H](C)Nc2ccc3nnc(C(F)(F)F)n3n2)c1 [Compound 7]"
value_measured = "+ (0-30: “+”)"

[[record]]
molecule = "Cc1nnc2ccc(N[C@H](C)c3ccc(F)cc3)nn12 [Compound 10]"
value_measured = "+++ (>60.1: “+++”)"

[[record]]
molecule = "CC[C@@H](Nc1ccc2nnc(C(F)(F)F)n2n1)c1ccc(F)cc1 [Compound 3]"
value_measured = "+++ (>60.1: “+++”)"

[[record]]
molecule = "C[C@@H](Nc1ccc2nnc(C(F)(F)F)n2n1)c1ccc(C(F)(F)F)cc1 [Compound 4]"
value_measured = "+++ (>60.1: “+++”)"

[[record]]
molecule = "C[C@H](c1ccc(F)cc1)N(C)c1ccc2nnc(C(F)(F)F)n2n1 [Compound 5]"
value_measured = "+ (0-30: “+”)"


Next molecule, please.
In: Requested read-out: Mouse LM: Rem @ 60 min. Entry: C[C@@H](Nc1ccc2nnc(C(F)F)n2n1)c1ccc(F)cc1 [Compound 12]
Out: +++ (>60.1: “+++”)
